# measured target: GABAA receptors (α5β2γ2) (Homo sapiens, UniProt P18507+P31644)
# Construct: expressed in transfected cells
# Sequence (P31644 32-462): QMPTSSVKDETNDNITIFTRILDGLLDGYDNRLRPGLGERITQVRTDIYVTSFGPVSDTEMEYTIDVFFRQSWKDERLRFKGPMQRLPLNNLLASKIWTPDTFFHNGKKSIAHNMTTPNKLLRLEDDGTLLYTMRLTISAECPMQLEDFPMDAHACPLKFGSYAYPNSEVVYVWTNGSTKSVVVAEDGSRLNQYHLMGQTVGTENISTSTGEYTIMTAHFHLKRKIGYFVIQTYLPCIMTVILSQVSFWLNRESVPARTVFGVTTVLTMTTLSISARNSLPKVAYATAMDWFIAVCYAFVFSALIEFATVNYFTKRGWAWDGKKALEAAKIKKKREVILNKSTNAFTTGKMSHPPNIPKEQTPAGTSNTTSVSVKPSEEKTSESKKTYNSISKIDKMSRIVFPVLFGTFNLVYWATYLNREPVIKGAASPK
# Sequence (P47870 25-512 partner limits assumed): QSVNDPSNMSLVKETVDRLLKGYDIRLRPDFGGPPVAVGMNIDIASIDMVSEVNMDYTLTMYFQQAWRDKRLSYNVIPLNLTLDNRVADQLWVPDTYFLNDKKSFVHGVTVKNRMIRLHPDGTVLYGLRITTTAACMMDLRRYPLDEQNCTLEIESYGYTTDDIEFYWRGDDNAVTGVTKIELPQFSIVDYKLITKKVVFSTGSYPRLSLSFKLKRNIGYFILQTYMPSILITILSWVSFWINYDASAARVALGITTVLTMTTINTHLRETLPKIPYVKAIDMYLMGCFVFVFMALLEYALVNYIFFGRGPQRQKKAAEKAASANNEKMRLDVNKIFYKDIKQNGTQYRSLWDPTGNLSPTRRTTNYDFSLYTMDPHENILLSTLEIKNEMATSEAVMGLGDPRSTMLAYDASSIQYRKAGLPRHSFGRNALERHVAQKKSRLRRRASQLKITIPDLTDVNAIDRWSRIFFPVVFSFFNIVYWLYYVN
# Sequence (P18507 40-475): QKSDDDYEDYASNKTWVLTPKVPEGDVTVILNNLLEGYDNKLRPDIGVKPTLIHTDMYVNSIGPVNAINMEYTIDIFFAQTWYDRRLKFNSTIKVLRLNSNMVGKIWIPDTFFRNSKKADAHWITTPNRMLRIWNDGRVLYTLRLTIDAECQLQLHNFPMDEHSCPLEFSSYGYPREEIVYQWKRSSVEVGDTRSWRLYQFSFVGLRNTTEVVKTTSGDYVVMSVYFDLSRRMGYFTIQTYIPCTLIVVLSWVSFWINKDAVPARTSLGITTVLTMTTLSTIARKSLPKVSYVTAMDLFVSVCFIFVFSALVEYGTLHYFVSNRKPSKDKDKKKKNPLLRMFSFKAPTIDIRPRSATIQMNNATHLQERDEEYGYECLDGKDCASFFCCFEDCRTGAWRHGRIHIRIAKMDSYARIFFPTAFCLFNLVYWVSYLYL
# protocol details: Positive allosteric modulator activity: potentiation of EC20 GABA current in oocytes
# Type: cell-based
# experimental parameters: read-out: GABA α5 functional potentiation
parameter measured: activation at 0.1 µM

Task item: Supply activation at 0.1 µM value. Item: COc1ccc2c(c1)-c1nnc(COc3cccc(F)c3)n1Cc1c(-c3noc(C(C)C)n3)ncn1-2 [Compound 179]
Reply: > 50%

Task item: Item CCOC(=O)c1ncn2c1Cc1c(COc3cccc(OC)c3)nnn1-c1cc(OC)ccc1-2 [Compound 11] : provide activation at 0.1 µM
Reply: 20 to 49%

Task item: Identify the reported activation at 0.1 µM for the following entry. COCc1nnc2n1Cc1c(C3=N[C@@H](c4ccccc4)CO3)ncn1-c1ccc(Cl)cc1-2 [Compound 264]
Reply: 20 to 49%

Task item: Give reported activation at 0.1 µM value for Clc1ccc2c(c1)-c1nnc(COc3ccccc3)n1Cc1c(Br)ncn1-2 [Compound 202]
Reply: 20 to 49%

Task item: State its activation at 0.1 µM: COc1ccc2c(c1)-c1nnc(COc3cccc(F)c3)n1Cc1c(C#N)ncn1-2 [Compound 196]
Reply: 20 to 49%

Task item: Entry COc1ccc2c(c1)-c1nnc(COc3ccc(F)cc3)n1Cc1c(-c3noc(C)n3)ncn1-2 [Compound 163] needs its activation at 0.1 µM filled in; supply it.
Reply: 20 to 49%

Task item: State, in one line, measured activation at 0.1 µM of COCc1nnc2n1Cc1c(C#Cc3ccccc3C)ncn1-c1ccc(Cl)cc1-2 [Compound 293]
Reply: 20 to 49%

Task item: Retrieve activation at 0.1 µM measured for CCOC(=O)c1ncn2c1Cc1c(Cc3cccnc3)nnn1-c1cc(C)ccc1-2 [Compound 111] and print it.
Reply: 20 to 49%

Task item: Indicate the recorded activation at 0.1 µM value for this molecule: COc1ccc2c(c1)-c1nnc(COc3ccccc3)n1Cc1c(-c3noc(C)n3)ncn1-2 [Compound 162]
Reply: 20 to 49%

Task item: Retrieve activation at 0.1 µM measured for COc1ccc2c(c1)-n1nnc(Cc3ccc(F)cc3)c1Cc1c(Br)ncn1-2 [Compound 213] and print it.
Reply: 20 to 49%

Task item: Look up activation at 0.1 µM of COc1ccc2c(c1)-c1nnc(COC3CCCC3)n1Cc1c(-c3noc(C(C)C)n3)ncn1-2 [Compound 178] and report it.
Reply: > 50%

Task item: Specify activation at 0.1 µM for Cc1nnn2c1Cc1c(C(=O)OCC(C)(C)C)ncn1-c1ccc(F)cc1-2 [Compound 113] and stop.
Reply: > 50%

Task item: Report measured activation at 0.1 µM; entry is COc1ccc2c(c1)-n1nnc(Cc3ccccc3)c1Cc1c(Br)ncn1-2 [Compound 212]
Reply: 20 to 49%

Task item: Output measured activation at 0.1 µM for this item: COc1ccc2c(c1)-n1nnc(Cc3cccnc3)c1Cc1c(C#N)ncn1-2 [Compound 210]
Reply: 20 to 49%

Task item: Dear colleague, please send me the reported activation at 0.1 µM for COc1ccc2c(c1)-c1nnc(COc3cccc4ccccc34)n1Cc1c(-c3noc(C(C)C)n3)ncn1-2 [Compound 177] when you can.
Reply: > 50%

Task item: Give a short answer stating reported activation at 0.1 µM for N#Cc1ncn2c1Cc1c(COc3ccccc3)nnn1-c1cc(Cl)ccc1-2 [Compound 226] .
Reply: 20 to 49%

Task item: Item Cc1nnn2c1Cc1c(-c3noc(C(C)(C)C)n3)ncn1-c1ccc(F)cc1-2 [Compound 160] : provide activation at 0.1 µM
Reply: > 50%

====

This section presents compounds with their documented Ki values.
# measured target: α5β3γ2 GABAA receptors (Ltk cells) (Homo sapiens, UniProt P18507+P31644)
# Construct: membranes
# Sequence (P31644 32-462): as the sequence (P31644 32-462) above
# Sequence (P28472 26-473 partner): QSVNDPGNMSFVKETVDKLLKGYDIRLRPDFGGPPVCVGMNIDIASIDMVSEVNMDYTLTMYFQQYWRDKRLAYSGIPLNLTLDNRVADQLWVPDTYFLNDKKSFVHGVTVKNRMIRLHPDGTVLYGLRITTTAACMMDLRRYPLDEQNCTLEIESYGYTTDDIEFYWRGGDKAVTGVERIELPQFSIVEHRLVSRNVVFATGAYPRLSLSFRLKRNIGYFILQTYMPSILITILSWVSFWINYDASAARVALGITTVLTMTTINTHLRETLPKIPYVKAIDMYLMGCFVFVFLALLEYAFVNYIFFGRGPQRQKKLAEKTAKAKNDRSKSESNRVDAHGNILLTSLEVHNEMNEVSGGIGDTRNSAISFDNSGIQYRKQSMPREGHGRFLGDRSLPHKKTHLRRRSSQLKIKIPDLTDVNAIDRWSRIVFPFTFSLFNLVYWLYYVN
# Sequence (P18507 40-475): as the sequence (P18507 40-475) above
# protocol details: Binding activity on GABAAR: inhibition of [3H]Ro15-1788 binding

Please review the entries below; each comes with its answer.
[
  {
    "compound": "CCOCc1nnc2n1Cc1c(C3=N[C@@H](c4ccccc4)CO3)ncn1-c1ccc(Cl)cc1-2 [Compound 275]",
    "value observed": "< 99 nM"
  },
  {
    "compound": "COCc1nnc2n1Cc1c(C3=N[C@H](C)CO3)ncn1-c1ccc(Cl)cc1-2 [Compound 282]",
    "value observed": "< 99 nM"
  }
]

Task item: Answer with the recorded Ki of COc1ccc2c(c1)-n1nncc1Cc1c(-c3nc(C(C)C)no3)ncn1-2 [Compound 257] only.
Reply: < 99 nM

Task item: Report Ki, nothing else, for this compound: CCOC(=O)c1ncn2c1Cc1c(C)nnn1-c1cc(C)ccc1-2 [Compound 102]
Reply: < 99 nM

====

This listing pairs compounds with measured pKi.
# measured target: α5β3γ2 GABAA receptors (Ltk cells) (Homo sapiens, UniProt P18507+P31644)
# Construct: membranes
# protocol details: Binding activity on GABAAR: inhibition of [3H]Ro15-1788 binding
pKi: −log10 of the molar value.

Below, 2 compounds whose answers are already recorded.
[
  {
    "compound": "COCc1nnc2n1Cc1c(C3=NC(c4ccccc4)CO3)ncn1-c1ccc(Cl)cc1-2 (stereo not shown) [Compound 242]",
    "pKi": "> 7.00"
  },
  {
    "compound": "CCc1nc(-c2ncn3c2Cc2c(Cc4ccc(F)cc4)nnn2-c2cc(OC)ccc2-3)no1 [Compound 195]",
    "pKi": "> 7.00"
  }
]

Task item: Please indicate pKi recorded for COc1ccc2c(c1)-n1nnc(C)c1Cc1c(-c3nc(C(C)C)no3)ncn1-2 [Compound 277]
Reply: > 7.00

Task item: Read the entry COCc1nnc2n1Cc1c(C3=NCCO3)ncn1-c1ccc(Cl)cc1-2 [Compound 238] and write its reported pKi.
Reply: > 7.00

====

# measured target: GABAA receptors (α5β2γ2) (Homo sapiens, UniProt P18507+P31644)
# Construct: expressed in transfected cells
# protocol details: Positive allosteric modulator activity: potentiation of EC20 GABA current in oocytes
# Type: cell-based
# experimental parameters: read-out: GABA α5 functional potentiation
Quick list: activation at 0.1 µM per entry.

For orientation, consider the following solved cases.
[
  {
    "compound": "Cc1nc(-c2ncn3c2Cc2c(C)nnn2-c2cc(F)ccc2-3)no1",
    "activation at 0.1 µM": "> 50%"
  },
  {
    "compound": "C#Cc1ncn2c1Cn1c(COc3ccccc3)nnc1-c1cc(Cl)ccc1-2",
    "activation at 0.1 µM": "20 to 49%"
  },
  {
    "compound": "COc1ccc2c(c1)-c1nnc(COCc3cccnc3)n1Cc1c(-c3noc(C(C)C)n3)ncn1-2",
    "activation at 0.1 µM": "20 to 49%"
  }
]

Task item: Look up and report activation at 0.1 µM, with GABAA receptors (α5β2γ2) (Homo sapiens, UniProt P18507+P31644) as system, for Cc1nc(-c2ncn3c2Cc2c(C)nnn2-c2ccccc2-3)no1
Reply: 20 to 49%

Task item: Enter recorded activation at 0.1 µM with GABAA receptors (α5β2γ2) (Homo sapiens, UniProt P18507+P31644) for COCc1nnc2n1Cc1c(C3=NC(C)CO3)ncn1-c1ccc(Cl)cc1-2 (stereo not shown) here.
Reply: 20 to 49%

Task item: Find the measured activation at 0.1 µM of COc1ccc2c(c1)-c1nnc(COc3ccc(F)cc3)n1Cc1c(C#N)ncn1-2 with GABAA receptors (α5β2γ2) (Homo sapiens, UniProt P18507+P31644) as test system.
Reply: 20 to 49%

Task item: Look up GABAA receptors (α5β2γ2) (Homo sapiens, UniProt P18507+P31644) data: activation at 0.1 µM of Cc1nnn2c1Cc1c(-c3noc(C(C)C)n3)ncn1-c1ccc(F)cc1-2 , then report it.
Reply: > 50%

Task item: Enter measured activation at 0.1 µM, system GABAA receptors (α5β2γ2) (Homo sapiens, UniProt P18507+P31644), for the compound shown: COc1ccc2c(c1)-c1nnc(COc3ccccc3)n1Cc1c(C(=O)OC(C)C)ncn1-2
Reply: 20 to 49%

Task item: Fill in activation at 0.1 µM for COc1ccc2c(c1)-c1nnc(COc3ccc(F)cc3)n1Cc1c(-c3noc(C(C)C)n3)ncn1-2 tested with GABAA receptors (α5β2γ2) (Homo sapiens, UniProt P18507+P31644).
Reply: > 50%

Task item: Look up and report measured activation at 0.1 µM (GABAA receptors (α5β2γ2) (Homo sapiens, UniProt P18507+P31644)) for the following compound: COCc1nnc2n1Cc1c(-c3nc(C)no3)ncn1-c1ccc(OC)cc1-2
Reply: 20 to 49%
